test system: HCT-116 colon; experiment: NCI tumour cell line growth inhibition, 48 h
measured.endpoint: TGI

Request: Field request: TGI | item: COc1ccc(Nc2nc(N)c(C(=O)c3c[nH]c4ccccc34)s2)cc1
Result: 6.58 µM

Request: Field request: TGI | item: Cc1cc(C)c2c(=O)cc(-c3cccc(F)c3)[nH]c2n1
Result: 0.433 µM

Request: Field request: TGI | item: Fc1cc2[nH]ncc2c2c3c(c(-c4cn[nH]c4C(F)(F)F)nc12)C1CCC3C1 (centres undefined)
Result: 5.55 µM

Request: Field request: TGI | item: CCCCN(CCCC)c1c([N+](=O)[O-])c(=O)nc2ccccn12
Result: > 100 µM

Request: Field request: TGI | item: Cc1c(CN2CCN(C)CC2)c(CN2CCN(C)CC2)c(C)n1-c1ccc(Cl)cc1
Result: > 100 µM

Request: Field request: TGI | item: CCn1c(-c2nonc2N)nc2c(C#CC(C)(C)O)nc(OCCNC)cc21
Result: > 21.6 µM

Request: Field request: TGI | item: O=S(=O)(c1cc(Cl)ccc1Cl)n1ccnc1
Result: > 100 µM

Request: Field request: TGI | item: Cc1cccc(-n2c(=S)[nH]c3c(sc(=O)n3-c3ccccc3C)c2=O)c1
Result: > 100 µM

Request: Field request: TGI | item: Cc1cc2ncn(C3CCCCO3)c2cc1C (centres undefined)
Result: > 100 µM

Request: Field request: TGI | item: Cc1ccc2nc(-c3ccc(N(C)C)c(Br)c3)cn2c1
Result: > 100 µM

Request: Field request: TGI | item: Cc1[nH]nc(C(=O)n2nc(N)c3ccccc32)c1[N+](=O)[O-]
Result: > 100 µM

Request: Field request: TGI | item: C=C1C(OC2O[C@@H]3O[C@@]4(C)CC[C@H]5[C@H](C)CC[C@@H](C2=C)[C@@]35O4)O[C@@H]2O[C@@]3(C)CC[C@H]4[C@H](C)CC[C@@H]1[C@@]24O3 (some centres undefined)
Result: > 50 µM

Request: Field request: TGI | item: O=[N+]([O-])c1cnn(C2=CNc3ccccc3N=C2)c1
Result: > 100 µM

Request: Field request: TGI | item: Cc1ccc(C(=O)N/N=C(\N=Nc2ccccc2)c2ccc(N(C)C)cc2)cc1
Result: > 100 µM

Request: Field request: TGI | item: COc1cc(/C=C2\C(=O)Nc3ccc(N(C)C)cc32)cc(OC)c1OC
Result: > 43.9 µM

Request: Field request: TGI | item: COc1cc(-c2n/c(=C\c3c(O)[nH]c4ccc(Cl)cc34)cc3c2=Nc2ccccc2-3)ccc1F
Result: 3.34 µM

Request: Field request: TGI | item: Cc1nc2sccn2c1-c1csc(Nc2cccc(Cl)c2C)n1
Result: 20.1 µM

Request: Field request: TGI | item: O=[N+]([O-])c1ccc(NC(=S)N=Nc2c(O)[nH]c3ccc([N+](=O)[O-])cc23)cc1
Result: 46.3 µM

Request: Field request: TGI | item: CCOC(=O)/C=C1\CCCC12OCCO2
Result: > 100 µM

Request: Field request: TGI | item: CC(CCC(=O)O)C(=O)O (centres undefined)
Result: > 100 µM

Request: Field request: TGI | item: CCC1=C(C(C)=O)[C@@H]2CCCCC[C@@H](C(=O)OC)C2C1=O (some centres undefined)
Result: > 100 µM

Request: Field request: TGI | item: NC(=O)c1cc2c3ccccc3ccn2c1-c1ccccc1
Result: 4.22 µM

Request: Field request: TGI | item: CS(=O)(=O)Nc1ccc2c(c1)N(S(C)(=O)=O)CC2CCl (centres undefined)
Result: > 100 µM

Request: Field request: TGI | item: CC[O-].CC[O-].O=S(=O)([O-])c1ccc([O-])c2ncccc12.O=S(=O)([O-])c1ccc([O-])c2ncccc12.[Ti+4]
Result: > 100 µM

Request: Field request: TGI | item: C/C=C(/C)C(=O)OC1CC(C)[C@H]2CC(=O)C(C)=C2CC1C(C)(C)OC(C)=O (some centres undefined)
Result: 40.7 µM

Request: Field request: TGI | item: OCCOCn1nncc1Cn1ncc2c(SCc3ccccc3)ncnc21
Result: > 100 µM

Request: Field request: TGI | item: CC1C(NNc2ccccc2)Oc2cc3c(cc2C1c1ccccc1O)OCO3 (centres undefined)
Result: 18.7 µM

Request: Field request: TGI | item: COc1ccc2[nH]c(O)c(C(=Nc3ccc(N(C)C(=O)CN4CCN(C)CC4)cc3)c3ccccc3)c2c1
Result: 8.37 µM

Request: Field request: TGI | item: CC(C)C(CC(=O)OCC(CO)OC(=O)CC(C(C)C)C(C)C)C(C)C (centres undefined)
Result: 33.4 µM

Request: Field request: TGI | item: Cc1ccc(-c2cc(-c3ccccc3)c(C#N)c(=O)n2C2OC(CO)C(O)C(O)C2O)cc1 (centres undefined)
Result: > 100 µM

Request: Field request: TGI | item: Cc1ccc(-c2cc(-c3ccco3)c(C#N)c(=O)n2C2OC(OC(=O)c3ccccc3)C(OC(=O)c3ccccc3)C2OC(=O)c2ccccc2)cc1 (centres undefined)
Result: > 100 µM

Request: Field request: TGI | item: COc1cc(C(=O)Nc2cc3c(cc2Oc2cc(C)cc(C)c2)C(=O)N(C)[C@@H](CC(=O)N(C)O)C(=O)N3)c(Br)c(OC)c1OC
Result: < 0.00333 µM

Request: Field request: TGI | item: C/C=C/C=C/C=C/C=C/C(=O)O
Result: > 100 µM

Request: Field request: TGI | item: Cc1cc(S(=O)(=O)NC#N)c(S/C(=N\Nc2ccc([N+](=O)[O-])cc2)c2ccc(Cl)cc2)cc1Cl
Result: 26 µM

Request: Field request: TGI | item: Cc1c(C(=O)NCCN2CCOCC2)cn2ncnc(Oc3ccc(NC(=O)Nc4ccc(Cl)c(C(F)(F)F)c4)cc3)c12
Result: 2.1 µM

Request: Field request: TGI | item: CCn1c2ccc(O)cc2c2c(C)c3c[n+](C)ccc3c(C)c21
Result: > 100 µM

Request: Field request: TGI | item: O=c1c(Cc2ccc(Cl)cc2)nnc2sc(-c3ccc(-c4ccc(F)c(Cl)c4)o3)nn12
Result: > 100 µM

Request: Field request: TGI | item: CN(C)/N=C(/c1nc2ccc(Cl)cc2[nH]c1=O)C(O)c1ccc(C(O)/C(=N\N(C)C)c2nc3ccc(Cl)cc3[nH]c2=O)cc1 (centres undefined)
Result: > 100 µM

Request: Field request: TGI | item: COc1ccccc1CN=C1Nc2ccncc2S(=O)(=O)N1c1ccccc1
Result: > 100 µM

###

system: PC-3 prostate; assay: NCI tumour cell line growth inhibition, 48 h
measured.endpoint: GI50

Request: Field request: GI50 | item: Cc1cc(S(=O)(=O)NC#N)c(S/C(=N\Nc2ccc([N+](=O)[O-])cc2)c2ccc(Cl)cc2)cc1Cl
Result: 33.6 µM

Request: Field request: GI50 | item: COc1ccc2cc(-c3c(-c4ccncc4)nc(-c4ccc(S(C)(=O)=O)cc4C)n3C)ccc2c1
Result: 8.35 µM

Request: Field request: GI50 | item: Cc1cc(Cl)ccc1Nc1nc(C(F)(F)F)ccc1C(=O)N/N=C/c1ccc([N+](=O)[O-])cc1
Result: 0.598 µM

Request: Field request: GI50 | item: CCn1c2ccc(O)cc2c2c(C)c3c[n+](C)ccc3c(C)c21
Result: 15.2 µM

Request: Field request: GI50 | item: COc1cc(-c2cn(-c3ccc(Cl)c(Cl)c3)c(=O)n2C(C)=O)cc(OC)c1OC
Result: 4.3 µM

Request: Field request: GI50 | item: COc1ccc2[nH]c(O)c(C(=Nc3ccc(N(C)C(=O)CN4CCN(C)CC4)cc3)c3ccccc3)c2c1
Result: 3.52 µM

Request: Field request: GI50 | item: CC[PH+](CC)CC.O=COC1OC([S-])C(OC=O)C(OC=O)C1OC=O.[Au+] (stereo not drawn)
Result: 1.66 µM

Request: Field request: GI50 | item: Cc1nc2sccn2c1-c1csc(Nc2cccc(Cl)c2C)n1
Result: 3.72 µM

###

Kindly state TGI for each of the entries shown.
test system: XF 498 CNS; assay: NCI tumour cell line growth inhibition, 48 h

Request: Field request: TGI | item: CN(C)CCNC(=O)c1cc(Cl)cc2ccc(-c3ccccc3)nc12
Result: 5.04 µM

Request: Field request: TGI | item: C[C@]12CCCC(=O)C1(O)C[C@H](C(=O)O)CC2 (stereo partly drawn)
Result: > 100 µM

Request: Field request: TGI | item: OC1(c2ccccc2)OC(C#Cc2ccccc2)(c2ccccc2)c2ccccc21 (stereo not drawn)
Result: 19.8 µM

Request: Field request: TGI | item: CCOC(=O)c1cc(/C=C/C(C)=C/C(=O)OC)oc1C
Result: > 100 µM

Request: Field request: TGI | item: CC(=O)NC(CCCCNC(=O)NCCCl)C(=O)NCc1ccccc1 (stereo not drawn)
Result: > 100 µM

Request: Field request: TGI | item: COC(=O)C1=C(C(=O)OC)SC(=CC#CC=C2SC(C(=O)OC)=C(C(=O)OC)S2)S1
Result: 19.1 µM

Request: Field request: TGI | item: CCC1=NC(CO)[C@H](c2ccccc2)O1 (stereo partly drawn)
Result: > 100 µM

Request: Field request: TGI | item: COC(=O)c1ccccc1NC(=O)C(=O)NNC(=O)c1ccncc1
Result: > 100 µM
